# Lookup of reported growth keyed by entry
- Tested on: U251 CNS
- TEST DESCRIPTION: NCI-60 one-dose screen, 48 h (100 = growth as untreated, 0 = no growth, -100 = all killed)
- STATED CONDITIONS: 10 µM unless noted
Compounds without any hit were thinned out: in the full panel of roughly 83,000, 20% have a hit.

>  <COMPOUND>
Clc1ccc2nnnn2n1

>  <VALUE UNIT>
%

>  <growth>
34.4

$$$$
>  <COMPOUND>
COC1OC(CO)C(O)C(O)[CH]1[Hg][O]C(C)=O (centres undefined)

>  <VALUE UNIT>
%

>  <growth>
67.7

$$$$
>  <COMPOUND>
CC(=O)O[C@H](C[C@H](C(C)C)N(C)C(=O)[C@@H](NC(=O)[C@H]1CCCCN1C)C(C)C)c1nc(C(=O)N[C@@H](Cc2ccccc2)C[C@H](C)C(=O)O)c(C)s1

>  <VALUE UNIT>
%

>  <growth>
8.94

$$$$
>  <COMPOUND>
CC(=O)Oc1ccccc1C(=O)NCCC[Se]C#N

>  <VALUE UNIT>
%

>  <growth>
-62.1

$$$$
